- Test system: LoVo cells
- Experimental details: LoVo cell proliferation assay (CellTiter-Glo)
- Format: cell-based
- Measurement context: Homo sapiens, LoVo, 120 h, LoVo cells, 2,000 cells per well, 5 days incubation, CellTiter-Glo; maximum concentration 10 µM, 9 concentrations; read-out: LoVo IC50
# Lookup of reported IC50 keyed by entry
Assay endpoint: IC50

{"Compound": "C[C@@H]1COCCN1c1cc2c3c(n1)c(-c1cc[nH]n1)nn3CCNC2", "Value reported": "100 to 1000 nM"}
{"Compound": "C[C@@H]1COCCN1c1cc2c3c(n1)c(-c1cc[nH]n1)nn3CCC(=O)N2[C@H](C)CC(F)(F)F [Compound 111B]", "Value reported": "100 to 1000 nM"}
{"Compound": "CCC1c2cc(N3CCOC[C@H]3C)nc3c2c(nn3-c2cc[nH]n2)CCN1S(=O)(=O)C1CC1 (single isomer, unassigned) [Compound 145A]", "Value reported": "100 to 1000 nM"}
{"Compound": "CC1c2cc(N3CCOC[C@H]3C)nc3c(-c4cc[nH]n4)nn(c23)CCN1S(C)(=O)=O (stereo partly shown)", "Value reported": "100 to 1000 nM"}
{"Compound": "CC(C)N1CCc2nn(-c3cc[nH]n3)c3nc(N4CCOC[C@H]4C)cc(c23)C1C (single isomer, unassigned) [Compound 36A]", "Value reported": "100 to 1000 nM"}
{"Compound": "CC1c2cc(N3CCOC[C@H]3C)nc3c2c(nn3-c2cc[nH]n2)CCN1S(=O)(=O)C1CC1F (single isomer, unassigned) [Compound 151A]", "Value reported": "< 100 nM"}
{"Compound": "CC1c2cc(N3CCOC[C@H]3C)nc3c2c(nn3-c2cc[nH]n2)CCN1C (single isomer, unassigned) [Compound 35A]", "Value reported": "< 100 nM"}

----------
- Test system: LoVo cells
- Experimental details: LoVo cell proliferation assay (CellTiter-Glo)
- Format: cell-based
- Measurement context: Homo sapiens, LoVo, 120 h, LoVo cells, 2,000 cells per well, 5 days incubation, CellTiter-Glo; maximum concentration 10 µM, 9 concentrations; read-out: LoVo IC50
Assay endpoint: IC50

{"Compound": "C[C@@H]1COCCN1c1cc2c3c(n1)c(-c1cc[nH]n1)nn3CCC(=O)N2C", "Target or test system": "LoVo cells", "Assay endpoint": "IC50", "Value reported": "100 to 1000 nM"}
{"Compound": "C[C@@H]1COCCN1c1cc2c3c(nn(-c4cc[nH]n4)c3n1)CCN(c1ccccc1)C2", "Target or test system": "LoVo cells", "Assay endpoint": "IC50", "Value reported": "> 1000 nM"}
{"Compound": "C[C@@H]1COCCN1c1cc2c3c(n1)c(-c1cc[nH]n1)nn3CCN(C1CC(F)(F)C1)C2", "Target or test system": "LoVo cells", "Assay endpoint": "IC50", "Value reported": "> 1000 nM"}
{"Compound": "CC(C)CN1C(=O)CCn2nc(-c3cc[nH]n3)c3nc(N4CCOC[C@H]4C)cc1c32", "Target or test system": "LoVo cells", "Assay endpoint": "IC50", "Value reported": "< 100 nM"}
{"Compound": "C[C@@H]1COCCN1c1cc2c3c(n1)c(-c1cc[nH]n1)nn3CCC(=O)N2CC1CC1", "Target or test system": "LoVo cells", "Assay endpoint": "IC50", "Value reported": "< 100 nM"}
{"Compound": "CC(C)C1c2cc(N3CCOC[C@H]3C)nc3c2c(nn3-c2cc[nH]n2)CCN1C1COC1 (stereo partly drawn)", "Target or test system": "LoVo cells", "Assay endpoint": "IC50", "Value reported": "< 100 nM"}
{"Compound": "CC(C)N1CCc2nn(-c3cc[nH]n3)c3nc(N4CCOC[C@H]4C)cc(c23)C1", "Target or test system": "LoVo cells", "Assay endpoint": "IC50", "Value reported": "100 to 1000 nM"}
{"Compound": "CC(=O)N1CCc2nn(-c3cc[nH]n3)c3nc(N4CCOC[C@H]4C)cc(c23)C1", "Target or test system": "LoVo cells", "Assay endpoint": "IC50", "Value reported": "100 to 1000 nM"}
{"Compound": "CC1c2cc(N3CCOC[C@H]3C)nc3c(-c4cc[nH]n4)nn(c23)CCN1C (single isomer, unassigned) [Compound 59A]", "Target or test system": "LoVo cells", "Assay endpoint": "IC50", "Value reported": "100 to 1000 nM"}
{"Compound": "CC1c2cc(N3CCOC[C@H]3C)nc3c2c(nn3-c2cc[nH]n2)CCN1C1CC1 (single isomer, unassigned) [Compound 31A]", "Target or test system": "LoVo cells", "Assay endpoint": "IC50", "Value reported": "< 100 nM"}
{"Compound": "CN=S(C)(=O)N1CCc2nn(-c3cc[nH]n3)c3nc(N4CCOC[C@H]4C)cc(c23)C1C (single isomer, unassigned) [Compound 152A]", "Target or test system": "LoVo cells", "Assay endpoint": "IC50", "Value reported": "< 100 nM"}
{"Compound": "CC1c2cc(N3CCOC[C@H]3C)nc3c2c(nn3-c2cc[nH]n2)CCN1S(N)(=O)=O (stereo partly drawn)", "Target or test system": "LoVo cells", "Assay endpoint": "IC50", "Value reported": "100 to 1000 nM"}
{"Compound": "C[C@@H]1COCCN1c1cc2c3c(n1)c(-c1cc[nH]n1)nn3CCC(=O)N2C1CC2(CCC2)C1", "Target or test system": "LoVo cells", "Assay endpoint": "IC50", "Value reported": "100 to 1000 nM"}
{"Compound": "CC1c2cc(N3CCOC[C@H]3C)nc3c2c(nn3-c2cc[nH]n2)CCN1CC1COC1 (single isomer, unassigned) [Compound 44A]", "Target or test system": "LoVo cells", "Assay endpoint": "IC50", "Value reported": "100 to 1000 nM"}
{"Compound": "CC(C)N1CCCn2nc(-c3cc[nH]n3)c3nc(N4CCOC[C@H]4C)cc1c32", "Target or test system": "LoVo cells", "Assay endpoint": "IC50", "Value reported": "100 to 1000 nM"}

----------
- Target or test system: ATR kinase (Homo sapiens)
- Construct: purchased Eurofins 14-953
- Sequence (Q13535 whole entry): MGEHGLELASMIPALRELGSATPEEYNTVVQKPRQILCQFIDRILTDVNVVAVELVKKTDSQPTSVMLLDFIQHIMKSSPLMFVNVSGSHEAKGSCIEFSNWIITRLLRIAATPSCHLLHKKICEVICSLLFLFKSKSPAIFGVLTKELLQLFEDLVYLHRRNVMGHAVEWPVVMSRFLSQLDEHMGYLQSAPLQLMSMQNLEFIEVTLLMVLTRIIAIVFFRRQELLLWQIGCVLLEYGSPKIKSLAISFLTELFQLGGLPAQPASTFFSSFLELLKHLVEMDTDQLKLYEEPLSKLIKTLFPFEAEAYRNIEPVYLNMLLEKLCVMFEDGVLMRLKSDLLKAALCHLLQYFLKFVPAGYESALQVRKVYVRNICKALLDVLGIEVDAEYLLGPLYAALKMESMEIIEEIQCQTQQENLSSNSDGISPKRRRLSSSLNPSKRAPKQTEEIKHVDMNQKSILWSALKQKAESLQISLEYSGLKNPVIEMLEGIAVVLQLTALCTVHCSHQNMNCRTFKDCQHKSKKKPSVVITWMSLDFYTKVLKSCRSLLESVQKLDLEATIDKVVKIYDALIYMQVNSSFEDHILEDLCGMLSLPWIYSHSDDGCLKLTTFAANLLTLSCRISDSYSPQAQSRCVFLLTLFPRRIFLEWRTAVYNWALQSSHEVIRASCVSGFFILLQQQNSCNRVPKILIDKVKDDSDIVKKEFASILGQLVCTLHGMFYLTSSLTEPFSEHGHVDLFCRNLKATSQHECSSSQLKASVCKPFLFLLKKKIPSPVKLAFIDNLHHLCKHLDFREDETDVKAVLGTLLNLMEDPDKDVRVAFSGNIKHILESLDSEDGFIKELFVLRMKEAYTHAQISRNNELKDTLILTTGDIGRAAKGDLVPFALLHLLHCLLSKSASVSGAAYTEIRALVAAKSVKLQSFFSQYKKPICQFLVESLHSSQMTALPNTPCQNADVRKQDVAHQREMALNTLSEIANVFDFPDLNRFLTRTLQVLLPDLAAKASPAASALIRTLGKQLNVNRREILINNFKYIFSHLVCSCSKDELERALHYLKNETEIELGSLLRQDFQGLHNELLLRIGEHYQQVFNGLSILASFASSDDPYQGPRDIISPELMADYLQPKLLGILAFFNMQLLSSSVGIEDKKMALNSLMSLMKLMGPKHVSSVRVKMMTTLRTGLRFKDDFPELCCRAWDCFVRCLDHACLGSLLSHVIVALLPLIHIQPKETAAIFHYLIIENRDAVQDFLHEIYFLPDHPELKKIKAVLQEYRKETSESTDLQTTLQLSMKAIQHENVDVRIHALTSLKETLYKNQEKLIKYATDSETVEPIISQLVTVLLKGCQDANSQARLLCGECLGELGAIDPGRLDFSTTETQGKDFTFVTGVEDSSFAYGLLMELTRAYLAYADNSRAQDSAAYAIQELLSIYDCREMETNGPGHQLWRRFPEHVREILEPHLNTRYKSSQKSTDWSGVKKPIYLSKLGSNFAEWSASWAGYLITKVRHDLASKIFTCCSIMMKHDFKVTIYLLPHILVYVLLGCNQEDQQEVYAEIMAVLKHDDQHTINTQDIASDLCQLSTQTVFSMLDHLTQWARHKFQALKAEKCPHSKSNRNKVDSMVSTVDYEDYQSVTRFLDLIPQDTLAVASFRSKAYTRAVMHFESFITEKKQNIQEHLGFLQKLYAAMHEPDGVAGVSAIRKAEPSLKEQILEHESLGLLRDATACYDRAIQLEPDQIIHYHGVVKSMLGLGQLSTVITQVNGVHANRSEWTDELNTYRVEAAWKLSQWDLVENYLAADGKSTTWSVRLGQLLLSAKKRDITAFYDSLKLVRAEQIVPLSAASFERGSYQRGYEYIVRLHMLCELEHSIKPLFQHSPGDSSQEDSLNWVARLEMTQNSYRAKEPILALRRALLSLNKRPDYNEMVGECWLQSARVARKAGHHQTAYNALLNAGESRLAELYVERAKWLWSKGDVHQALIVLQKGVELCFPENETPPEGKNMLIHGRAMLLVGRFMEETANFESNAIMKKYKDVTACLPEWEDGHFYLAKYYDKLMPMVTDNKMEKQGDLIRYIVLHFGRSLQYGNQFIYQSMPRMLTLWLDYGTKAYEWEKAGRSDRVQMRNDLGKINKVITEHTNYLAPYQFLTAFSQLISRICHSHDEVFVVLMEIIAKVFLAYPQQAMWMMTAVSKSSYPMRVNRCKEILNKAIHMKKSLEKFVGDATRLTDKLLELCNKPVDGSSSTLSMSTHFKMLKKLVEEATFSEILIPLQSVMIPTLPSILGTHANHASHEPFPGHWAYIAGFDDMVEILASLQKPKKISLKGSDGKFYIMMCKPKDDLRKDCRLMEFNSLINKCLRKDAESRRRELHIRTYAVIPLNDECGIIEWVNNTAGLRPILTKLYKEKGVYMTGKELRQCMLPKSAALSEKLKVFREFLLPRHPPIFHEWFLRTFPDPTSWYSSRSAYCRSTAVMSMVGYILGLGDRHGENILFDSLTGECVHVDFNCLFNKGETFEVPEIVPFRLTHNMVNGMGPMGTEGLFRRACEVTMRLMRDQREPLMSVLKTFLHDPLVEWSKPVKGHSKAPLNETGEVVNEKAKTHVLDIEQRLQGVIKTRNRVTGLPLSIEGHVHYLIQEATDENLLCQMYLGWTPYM
- Sequence (Q8WXE1 whole entry partner): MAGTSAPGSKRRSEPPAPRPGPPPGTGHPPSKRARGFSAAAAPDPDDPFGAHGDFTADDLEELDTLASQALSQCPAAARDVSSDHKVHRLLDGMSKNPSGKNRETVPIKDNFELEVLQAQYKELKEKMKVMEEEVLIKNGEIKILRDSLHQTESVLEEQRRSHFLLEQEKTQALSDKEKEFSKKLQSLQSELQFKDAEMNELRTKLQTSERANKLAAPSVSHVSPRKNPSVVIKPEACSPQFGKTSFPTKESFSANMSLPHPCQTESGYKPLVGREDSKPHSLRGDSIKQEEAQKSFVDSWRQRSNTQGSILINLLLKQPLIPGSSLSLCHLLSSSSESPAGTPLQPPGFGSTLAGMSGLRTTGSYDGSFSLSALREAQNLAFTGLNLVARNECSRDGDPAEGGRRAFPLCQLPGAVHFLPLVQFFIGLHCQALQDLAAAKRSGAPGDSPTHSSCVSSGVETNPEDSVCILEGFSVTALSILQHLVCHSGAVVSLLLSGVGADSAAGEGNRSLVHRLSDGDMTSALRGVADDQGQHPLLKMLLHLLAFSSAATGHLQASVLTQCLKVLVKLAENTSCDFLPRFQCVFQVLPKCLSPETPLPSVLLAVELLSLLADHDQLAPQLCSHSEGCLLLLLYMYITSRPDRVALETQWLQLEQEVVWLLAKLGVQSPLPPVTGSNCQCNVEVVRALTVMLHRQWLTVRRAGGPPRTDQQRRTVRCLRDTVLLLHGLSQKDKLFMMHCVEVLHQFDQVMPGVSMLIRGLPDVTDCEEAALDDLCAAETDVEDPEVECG
- Experimental details: Inhibitory effect on ATR kinase activity (Caliper mobility shift, FAM-labeled RAD17 peptide substrate)
- Type: biochemical
- Measurement context: 1 nM ATR kinase (Eurofins), 28°C for 3 hours, maximum concentration 1 µM, 10 concentrations, read-out: ATR kinase IC50
# Lookup of reported IC50 keyed by entry
Assay endpoint: IC50

{"Compound": "C[C@@H]1COCCN1c1cc2c3c(nn(-c4cc[nH]n4)c3n1)CCN(C1CC(C(F)(F)F)C1)C2 (single isomer, unassigned) [Compound 13B]", "Target or test system": "ATR kinase (Homo sapiens)", "Value reported": "0.1 to 1 µM"}
{"Compound": "C[C@@H]1COCCN1c1cc2c3c(nn(-c4cc[nH]n4)c3n1)CCN(C(=O)CC(F)(F)F)C2", "Target or test system": "ATR kinase (Homo sapiens)", "Value reported": "0.01 to 0.1 µM"}
{"Compound": "CC(C)N1CCn2nc(-c3cc[nH]n3)c3nc(N4CCOC[C@H]4C)cc1c32", "Target or test system": "ATR kinase (Homo sapiens)", "Value reported": "0.1 to 1 µM"}

----------
- Target or test system: ATR kinase (Homo sapiens)
- Construct: purchased Eurofins 14-953
- Experimental details: Inhibitory effect on ATR kinase activity (Caliper mobility shift, FAM-labeled RAD17 peptide substrate)
- Type: biochemical
- Measurement context: read-out: ATR kinase IC50, 1 nM ATR kinase (Eurofins), 28°C for 3 hours, maximum concentration 1 µM, 10 concentrations
pIC50: −log10 of the molar value.
Assay endpoint: pIC50

{"Compound": "C[C@@H]1COCCN1c1cc2c3c(n1)c(-c1cc[nH]n1)nn3CCC(=O)N2C1CC2(C1)CC(C)(O)C2 (some centres unmarked)", "Target or test system": "ATR kinase (Homo sapiens)", "Value reported": "7.00 to 8.00"}
{"Compound": "C[C@@H]1COCCN1c1cc2c3c(n1)c(-c1cc[nH]n1)nn3CCC(=O)N2CC1(C)CC1", "Target or test system": "ATR kinase (Homo sapiens)", "Value reported": "7.00 to 8.00"}
{"Compound": "CC1c2cc(N3CCOC[C@H]3C)nc3c2c(nn3-c2cc[nH]n2)CCN1C(=O)C1(C#N)CC1 (single isomer, unassigned) [Compound 40B]", "Target or test system": "ATR kinase (Homo sapiens)", "Value reported": "7.00 to 8.00"}
{"Compound": "C[C@@H]1COCCN1c1cc2c3c(n1)c(-c1cc[nH]n1)nn3CCC(=O)N2Cc1cnn(C)c1", "Target or test system": "ATR kinase (Homo sapiens)", "Value reported": "7.00 to 8.00"}
{"Compound": "CC(C)N1C(=O)CCn2nc(-c3cc[nH]n3)c3nc(N4CCOC[C@H]4C)cc1c32", "Target or test system": "ATR kinase (Homo sapiens)", "Value reported": "> 8.00"}
{"Compound": "C[C@@H]1COCCN1c1cc2c3c(n1)c(-c1cc[nH]n1)nn3CCC(=O)N2C1(C)COC1", "Target or test system": "ATR kinase (Homo sapiens)", "Value reported": "7.00 to 8.00"}
{"Compound": "C[C@@H]1COCCN1c1cc2c3c(n1)c(-c1cc[nH]n1)nn3CCC(=O)N2CC12CC(F)(C1)C2", "Target or test system": "ATR kinase (Homo sapiens)", "Value reported": "> 8.00"}
{"Compound": "C[C@@H]1COCCN1c1cc2c3c(n1)c(-c1cc[nH]n1)nn3CCC(=O)N2C1(C(F)F)CC1", "Target or test system": "ATR kinase (Homo sapiens)", "Value reported": "> 8.00"}
